Test system: HTT
measurement_notes: Splicing RT-qPCR assay, HTT mRNA canonical junction (CJ) and alternative junction (AJ)
Assay type: cell-based, human
measurement_parameters: Homo sapiens, RT-qPCR panel, canonical junction mRNA; compound concentration having 50% response in CJ decrease; read-out: HTT IC50 (decrease in CJ mRNA levels)
pIC50: −log10 of the molar value.
Hi there, I'd appreciate the recorded pIC50 for every entry that follows.

Q) Identify measured pIC50 associated with CN1C[C@@H]2CN(c3ccc(-c4ccc(-c5cn[nH]c5)c5cn[nH]c45)nn3)C[C@@H]2C1
A) < 5.00

Q) Identify measured pIC50 associated with c1nc2c(-c3cn[nH]c3)ccc(-c3ccc(N4CCC45CCNC5)nn3)c2s1 (stereo not drawn)
A) < 5.00

Q) Identify measured pIC50 associated with CN(C)[C@H]1[C@@H]2CN(c3ccc(-c4ccc(-c5cn[nH]c5)c5ncsc45)nn3)C[C@@H]21
A) < 5.00
